Source: ChEMBL document CHEMBL3885861

Species: Rattus norvegicus
Assay: Open TG-GATES - Regimen: Single
Assay type: toxicity, organism-based, Sprague-Dawley
Parameters: regimen Single, gender Male, age 6 weeks
Settings: in vivo, po, 0 mg/kg, 6 h, tissue Blood, route gavage, dose level Control
parameter: MCHC (%)
Number in %, nothing else.

{"columns": ["molecule", "MCHC / %"],
 "data": [
  ["CC(=O)Oc1ccccc1C(=O)O [ASPIRIN]", 36.3],
  ["Cn1c(=O)c2[nH]cnc2n(C)c1=O.O [THEOPHYLLINE]", 33.4]
]}

Given CCc1cc(C(N)=S)ccn1 [ETHIONAMIDE] , state its recorded MCHC.
33.5

Repeat for the following molecule: CN(C)CCC=C1c2ccccc2CCc2ccccc21 [AMITRIPTYLINE]
32.6

Try the molecule COc1ccc(Cc2nccc3cc(OC)c(OC)cc23)cc1OC [PAPAVERINE]
33.3

// next record O=C(O)c1cc(/N=N/c2ccc(S(=O)(=O)Nc3ccccn3)cc2)ccc1O [SULFASALAZINE]
34.4

Input NC(=O)N/N=C/c1ccc([N+](=O)[O-])o1 [NITROFURAZONE]
32.2

Proceed to Clc1ccccc1CN1CCc2sccc2C1 [TICLOPIDINE]
35.2

Cool, now CSc1ccc2c(c1)N(CCC1CCCCN1C)c1ccccc1S2 (stereo not given) [THIORIDAZINE]
33.3

Query C[C@H](CS)C(=O)N1CCC[C@H]1C(=O)O [CAPTOPRIL] next
32.9

###

Species: Rattus norvegicus
Experiment: Open TG-GATES - Regimen: Single
Format: toxicity, organism-based, Sprague-Dawley
Parameters: regimen Single, gender Male, age 6 weeks
Conditions: in vivo, po, 0 mg/kg, 24 h, tissue Plasma, route gavage, dose level Control
parameter: DBIL (mg/dL)
Kindly answer with a numeric value in mg/dL, unit omitted.

{"columns": ["compound", "readout_unit", "quantitative_readout"],
 "data": [
  ["NC(=O)N/N=C/c1ccc([N+](=O)[O-])o1 [NITROFURAZONE]", "mg/dL", 0.012],
  ["CC(=O)Oc1ccccc1C(=O)O [ASPIRIN]", "mg/dL", 0.062]
]}

Now let's try a different one.
Any idea what DBIL was measured for O=C(O)c1cn(C2CC2)c2cc(N3CCNCC3)c(F)cc2c1=O [CIPROFLOXACIN] ?
0.074

###

Species on record: Rattus norvegicus
Assay: Open TG-GATES - Regimen: Single
Format: toxicity, organism-based, Sprague-Dawley
Parameters: regimen Single, gender Male, age 6 weeks
Conditions: in vivo, po, 300 mg/kg, 24 h, tissue Blood, route gavage, dose level Middle
Recorded Eos values for a group of compounds are listed next.
A number alone suffices; assume %.

{"columns": ["compound", "parameter", "quantitative_readout"],
 "data": [
  ["O=C(O)c1cc(/N=N/c2ccc(S(=O)(=O)Nc3ccccn3)cc2)ccc1O [SULFASALAZINE]", "Eos", 0.8],
  ["CCc1cc(C(N)=S)ccn1 [ETHIONAMIDE]", "Eos", 1],
  ["C[C@H](CS)C(=O)N1CCC[C@H]1C(=O)O [CAPTOPRIL]", "Eos", 0.8],
  ["O=C(O)c1cn(C2CC2)c2cc(N3CCNCC3)c(F)cc2c1=O [CIPROFLOXACIN]", "Eos", 1]
]}

Turning to the following compound.
I'd like to know its Eos. The compound in question is Clc1ccccc1CN1CCc2sccc2C1 [TICLOPIDINE]
1
